Provide the recorded inhibition for the entries that follow.
- systemUnderTest: Cannabinoid receptor 2 (Homo sapiens, UniProt P34972)
- Sequence (P34972 whole entry): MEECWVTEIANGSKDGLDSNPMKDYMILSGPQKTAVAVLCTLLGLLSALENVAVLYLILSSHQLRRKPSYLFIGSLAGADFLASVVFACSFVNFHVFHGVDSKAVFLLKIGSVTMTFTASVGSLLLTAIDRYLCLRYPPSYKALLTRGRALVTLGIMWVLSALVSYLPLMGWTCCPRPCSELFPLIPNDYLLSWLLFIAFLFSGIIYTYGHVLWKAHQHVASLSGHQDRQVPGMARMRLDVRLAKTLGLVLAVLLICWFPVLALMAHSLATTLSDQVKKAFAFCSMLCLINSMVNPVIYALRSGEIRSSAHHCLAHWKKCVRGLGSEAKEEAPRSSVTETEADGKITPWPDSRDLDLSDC
- experiment: Antagonist activity at human CB2-receptor expressed in CHO-K1 cells coexpressing G-alpha16 at 10 uM pre-incubated for 10 mins and later treated with 100 nM CB-receptor agonist, CP55940 by Fluo-4-AM dye based calcium mobilization assay
- Assay type: functional, cell-based

Here are 6 compounds. What values of inhibition were reported for them?
1. O=C(NC12CC3CC(CC(C3)C1)C2)c1cc2cccnc2[nH]1
2. O=C(NC12CC3CC(CC(C3)C1)C2)c1cc2ncccc2[nH]1
3. O=C(NC12CC3CC(CC(C3)C1)C2)c1cn(CCN2CCOCC2)c2cccnc12
4. O=C(NC12CC3CC(CC(C3)C1)C2)c1cc2ncccc2n1CCN1CCOCC1
5. O=C(NC12CC3CC(CC(C3)C1)C2)c1cc2cnccc2n1CCN1CCOCC1
6. O=C(NC12CC3CC(CC(C3)C1)C2)c1nc2ccccc2n1CCCCCO

## Result
["< 50%", "< 50%", "< 50%", "< 50%", "< 50%", "< 50%"]

For each of the items listed, what is its inhibition?
1. CCCCCn1cc(C(=O)NC23CC4CC(CC(C4)C2)C3)c2cnccc21
2. CCCCCn1c(C(=O)NC23CC4CC(CC(C4)C2)C3)cc2ncccc21
3. CCCCCn1c(C(=O)NC23CC4CC(CC(C4)C2)C3)nc2ccccc21
4. O=C(NC12CC3CC(CC(C3)C1)C2)c1cc2cccnc2n1CCN1CCOCC1
5. O=C(NC12CC3CC(CC(C3)C1)C2)c1nn(CCN2CCOCC2)c2ccccc12
6. O=C(NC12CC3CC(CC(C3)C1)C2)c1c[nH]c2ccncc12
7. CCCCCn1c(C(=O)NC23CC4CC(CC(C4)C2)C3)cc2cccnc21

## Result
1. > 50%
2. < 50%
3. < 50%
4. > 50%
5. < 50%
6. < 50%
7. < 50%
